System: TA97
Assay: Ames test, strain TA97
Format: cell-based
Details: 0.5 μg/dish
Each entry gets Not fulfilled if its TA97 +S9 stays under 60, and Fulfilled if its TA97 +S9 is 60 or above.

O=c1c2cc(Cl)ccc2[se]n1-c1ccccn1 ... Not fulfilled
C/C(=N\O)c1ccc(-n2[se]c3ccccc3c2=O)cc1 ... Fulfilled
O=c1c2ccc(Cl)cc2[se]n1-c1ccncc1 ... Fulfilled

Now consider the entry below.
-- ask Check this compound for TA97 +S9 at or above 60: O=c1c2cc(F)ccc2[se]n1-c1cccnc1
-- reply Fulfilled

----------
Test system: TA97
Assay: Ames test, strain TA97
Format: cell-based
Details: 5 μg/dish
# if value of TA97 −S9 reaches 60, tag class 1; if it stays below, tag class 0

-- ask Form field: TA97 −S9 at least 60? Entry: O=c1c2ccc(Cl)cc2[se]n1-c1ccncc1
-- reply class 0

-- ask Also C/C(=N\O)c1ccc(-n2[se]c3ccccc3c2=O)cc1 ?
-- reply class 1

-- ask Entry to check: O=c1c2cc(Cl)ccc2[se]n1-c1ccccn1
-- reply class 0

-- ask Another molecule to look at: O=c1c2cc(F)ccc2[se]n1-c1ccccn1
-- reply class 0

-- ask Here is the next molecule: O=c1c2cc(F)ccc2[se]n1-c1cccnc1
-- reply class 0
